# System: M14 melanoma
# assay: NCI-60 one-dose screen, 48 h
# reported.conditions: 10 µM unless noted
Compounds without any hit were thinned out: in the full panel of roughly 83,000, 20% have a hit. The source made the active and inactive calls. Rule for the calls: active = growth percent below 10; inactive = the rest.
Outcome (select one): class 1 (active), class 0 (inactive)

[Q] GET /call?item= "CC/C=C1/C(=O)C=C[C@@H]1C/C=C\CCCC(=O)O" returns the recorded outcome of this test.
[A] class 0

[Q] And CCCCCCCCCCCC(c1ccccc1)[N+](C)(C)C (centres undefined) ?
[A] class 0

====

# Test system: SK-MEL-28 melanoma
# assay: NCI-60 one-dose screen, 48 h (100 = growth as untreated, 0 = no growth, -100 = all killed)
# reported.conditions: 10 µM unless noted
The panel holds about 83,000 compounds, 20% with a hit somewhere; the sample as a whole holds those more often.
Answer each item with its documented growth.
Answers are plain numbers, in %.

Recorded results for 2 compounds are shown here.
CCCCCCCC/C=C\CCCCCCCCOc1ccccc1CC(=O)NCC[N+](C)(C)C
88.8
O=C(CSc1nnc(-c2ccc(NC(=O)c3cccnc3)cc2)o1)N[C@@H](Cc1ccc(O)cc1)C(=O)O
108

Lab note: each compound below needs its growth filled in.
1. Cc1ccc(-c2cc(-c3ccccc3C)[nH]c(=O)c2C#N)s1
2. CCc1ccccc1-n1c(-c2ccc(Cl)cc2)cc(-c2ccc(Cl)cc2)c(C#N)c1=O
3. O=C(/C=C/c1c(Cl)nc2sccn12)c1ccc(F)c(F)c1
4. CC(C)CCC[C@@H](C)[C@H]1CC[C@H]2[C@@H](Nc3ccc(O)cc3)CCC[C@]12C
5. N=C1CCC(=N)c2c1c(O)c1ccccc1c2O
6. Cc1ccc(S(=O)(=O)n2cc(CNc3ccc(N4CCOCC4=O)cc3)c3ccccc32)cc1
7. C=C1C(=O)O[C@H]2[C@H]1CC/C(COC(=O)C(=O)c1c[nH]c3ccccc13)=C\CC[C@@]1(C)O[C@@H]21

[A]
110
99.4
96
97.9
106
101
-54

[Q] Item CC(=O)N1C(=S)NC(=O)C1Cn1c(-c2ccccc2)nc2ccccc21 (stereo not given) has what recorded growth?
[A] 106
